- protocolDetails: Pharmacokinetic assessment in mouse plasma (LC-MS/MS)
- Assay type: in vivo
- conditionSummary: oral, 25 mg/kg, dose 25 mpk
observable: Cmax (ng/mL)
Give just the number in ng/mL; leave the unit off.

Query: Look up Cmax for this compound: "O=C(CCCCCCNC(=O)c1cnc(N(c2ccccc2)c2ccccc2)nc1)NO"
Reply: 33.7

* * *

- protocolDetails: Pharmacokinetic assessment in mouse plasma (LC-MS/MS)
- Assay type: in vivo
- conditionSummary: oral, 200 mg/kg, dose 200 mpk
observable: Cmax
Quick note: unit goes after the number.

Query: Look up Cmax for this compound: "O=C(CCCCCCNC(=O)c1cnc(N(c2ccccc2)c2ccccc2)nc1)NO"
Reply: 33.9 ng/mL

These measurements were taken from paper PMC12474259.
